Biological target: Dickkopf-related protein 1 (Homo sapiens)
Test: DKK1 binders on small-molecule microarrays, primary screen, biochemical, small-molecule microarray, 635 nm fluorescence scan (AID 1106);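 note: score merges emission near 667 nm with signal to noise over three replicate slides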
Details: DKK1 binding, higher = more signal
Think of 0.4 as a floor: if composite z-score stands on it or above, it is Fulfilled; beneath it, Not fulfilled.

- molecule: "CO[C@@H]1COC(=O)CC=C[C@@H](C)[C@H](OC)COC(=O)CC=C[C@H]1C"
  assignedCategory: "Fulfilled"
- molecule: "[N-]=[N+]=Nc1ccccc1C[C@@]1(C(=O)N2CCOCC2)N=C(c2ccc(OCCCO)cc2)O[C@@H]1c1ccccc1N=[N+]=[N-]"
  assignedCategory: "Fulfilled"
- molecule: "NC(=O)NCC#Cc1ccc2c(c1)[C@]1(C(=O)N2)[C@H](C(=O)N2CCCCCCC2)[C@H]2C(=O)O[C@H](c3ccccc3)[C@H](c3ccccc3)N2[C@@H]1c1ccccc1OCCO"
  assignedCategory: "Fulfilled"
- molecule: "C=CCN1C(=O)[C@@]2(O[C@@H](CCn3cc([C@H](O)c4ccccc4)nn3)[C@H]([Si](C)(C)c3ccc(OC)cc3)[C@H]2C)c2cc(N3CCOC3=O)ccc21"
  assignedCategory: "Not fulfilled"
- molecule: "CCOC(=O)C[C@H]1[C@H](OC(=O)c2cc3ccccc3oc2=O)[C@@H](NC(=O)C2CCCCC2)c2cc(OCCCO)ccc2N1C(=O)c1ccc2ccccc2n1"
  assignedCategory: "Fulfilled"
- molecule: "CCCNC(=O)[C@@H]1c2ccccc2C(=O)N(C2CCCCC2)[C@H]1c1ccc(CO)cc1"
  assignedCategory: "Not fulfilled"
- molecule: "CC(C)N1CC=CC23O[C@@H]4/C=C\\CCCOC(=O)C4[C@H]2C(=O)N(CCO)[C@@H]3C1=O (some centres not stated)"
  assignedCategory: "Not fulfilled"
